Test: Example 9 Part I: single oral dose pharmacokinetics of NC-758-1 (Table 5 tablet) in healthy elderly
Assay type: in vivo
Settings: both sexes, human, plasma; 150 mg single oral, elderly male and female, fasted; mean

>  <smi>
NCCCS(=O)(=O)O

>  <AUC(0-inf) (µg·h/mL)>
4.5

$$$$

---

Experiment: Example 9 Part I: single oral dose pharmacokinetics of NC-758-1 (Table 5 tablet) in healthy elderly
Format: in vivo
Details: both sexes, human, plasma; 100 mg single oral, elderly male and female, fasted; median
reportedProperty: Tmax

>  <smi>
NCCCS(=O)(=O)O

>  <value>
5 h

$$$$

---

Experiment: Example 8 Part I: multiple rising oral dose pharmacokinetics of NC-758
Assay type: in vivo
Conditions: both sexes, human, plasma, 200 mg, 200 mg BID, Day 1, elderly (≧55 years) male and female, fasted, mean, read-out: AUC0-12h

>  <smi>
NCCCS(=O)(=O)O

>  <resultUnits>
ng·h/mL

>  <AUC(0-t)>
5020

$$$$

---

Assay: Example 9 Part I: single oral dose pharmacokinetics of NC-758-1 (Table 5 tablet) in healthy elderly
Type: in vivo
Conditions: both sexes, human, plasma; 50 mg single oral, elderly male and female, fasted; mean
reportedProperty: Cmax (ng/mL)

>  <smi>
NCCCS(=O)(=O)O

>  <resultUnits>
ng/mL

>  <value>
469

$$$$

---

Assay: Example 9 Part I: single oral dose pharmacokinetics of NC-758-1 (Table 5 tablet) in healthy elderly
Format: in vivo
Settings: both sexes, human, plasma; 100 mg single oral, elderly male and female, fasted; mean

>  <smi>
NCCCS(=O)(=O)O

>  <Cmax, µg/mL>
0.745

$$$$

---

Experiment: Example 7 Part I: single rising oral dose pharmacokinetics of NC-758 (Table 3 tablet), plasma 3-APS by LC-MS/MS
Type: in vivo, human
Settings: human, plasma; 100 mg single oral, young (18-45 years) male, fasted; mean
reportedProperty: AUC(0-inf) (ng·h/mL)

>  <smi>
NCCCS(=O)(=O)O

>  <reportedProperty>
AUC(0-inf)

>  <value>
1420

$$$$

---

Assay: Example 9 Part I: single oral dose pharmacokinetics of NC-758-1 (Table 5 tablet) in healthy elderly
Type: in vivo
Details: both sexes, human, plasma; 100 mg single oral, elderly male and female, fasted; mean

>  <molecule>
NCCCS(=O)(=O)O [3-APS, 3-amino-1-propanesulfonic acid]

>  <resultUnits>
ng·h/mL

>  <AUC(0-inf)>
2870

$$$$

---

Test: Example 8 Part I: multiple rising oral dose pharmacokinetics of NC-758
Format: in vivo
Conditions: human, plasma, 100 mg BID, Day 1, young (18-45 years) male, fasted, mean

>  <smi>
NCCCS(=O)(=O)O

>  <resultUnits>
ng·h/mL

>  <AUC(0-inf)>
1020

$$$$

---

Assay: Example 9 Part I: single oral dose pharmacokinetics of NC-758-1 (Table 5 tablet) in healthy elderly
Format: in vivo
Conditions: both sexes, human, plasma; 150 mg single oral, elderly male and female, fasted; mean
reportedProperty: AUC(0-t) (ng·h/mL)

>  <smi>
NCCCS(=O)(=O)O

>  <reportedProperty>
AUC(0-t)

>  <value>
5300

$$$$

---

Assay: Example 8 Part I: multiple rising oral dose pharmacokinetics of NC-758
Format: in vivo
Details: male, human, plasma, 100 mg, 100 mg BID, Day 12, young (18-45 years) male, fasted, mean, read-out: AUC0-12h
reportedProperty: AUC(0-t)

>  <smi>
NCCCS(=O)(=O)O

>  <value>
1430 ng·h/mL

$$$$
